# assay comment: Octanol-water partition coefficient, log P of the compound
# Assay type: physicochemical
Response field class: string, computed from recorded logP by ranges range A: < 5; range B: ≥ 5 and < 6; range C: ≥ 6

{"columns": ["line notation", "category label"],
 "data": [
  ["CC(C)CN1C(=O)/C(=C/c2ccccn2)S/C1=N\\c1ccccc1", "range A"]
]}

Please classify: `CC(C)CN1C(=O)/C(=C/c2ccccc2C(F)(F)F)S/C1=N\c1ccccc1`
range C

Please let me know in which category the item `COc1ccc(/C=C2\S/C(=N\c3ccccc3)N(CC(C)C)C2=O)cc1` belongs.
range B

Hello team, could you let me know which band the following compound falls into: `CCc1ccc(/C=C2\S/C(=N\c3ccccc3)N(CC(C)C)C2=O)cc1`
range C

Form field 'band' for `CC(C)CN1C(=O)/C(=C/c2ccc([N+](=O)[O-])cc2)S/C1=N\c1ccccc1`
range B

###

# assay comment: Octanol-water partition coefficient, log P of the compound
# Type: physicochemical
parameter measured: logP
Answers are plain numbers.

{"columns": ["line notation", "parameter measured", "assay result"],
 "data": [
  ["CC(C)CN1C(=O)/C(=C/c2ccc3c(c2)OCO3)S/C1=N\\c1ccccc1", "logP", 5]
]}

// input: 4 compounds below; output: logP for each
1. CC(C)CN1C(=O)/C(=C/c2ccc(N(C)C)cc2)S/C1=N\c1ccccc1
2. CC(C)CN1C(=O)/C(=C/c2ccccc2O)S/C1=N\c1ccccc1
3. Cc1ccsc1/C=C1\S/C(=N\c2ccccc2)N(CC(C)C)C1=O
4. Cc1ccc(/C=C2\S/C(=N\c3ccccc3)N(CC(C)C)C2=O)cc1

1: 5.49; 2: 5.08; 3: 5.81; 4: 5.89

###

# assay comment: Octanol-water partition coefficient, log P of the compound
# Type: physicochemical
Hi there, I'd appreciate the recorded logP for every entry that follows.
Answers are plain numbers.

{"columns": ["line notation", "assay result"],
 "data": [
  ["CC(C)CN1C(=O)/C(=C/c2cccc(Cl)c2)S/C1=N\\c1ccccc1", 5.98]
]}

Each compound below has a recorded value; state its logP.
1. CC(C)CN1C(=O)/C(=C/c2ccc(Cl)cc2)S/C1=N\c1ccccc1
2. COc1ccc(OC)c(/C=C2\S/C(=N\c3ccccc3)N(CC(C)C)C2=O)c1

[5.98, 5.06]

###

Could you please report measured logP for the items listed next?
# assay comment: Octanol-water partition coefficient, log P of the compound
# Assay type: physicochemical
One number for each entry.

A selection of reference data follows.
{"columns": ["line notation", "assay result"],
 "data": [
  ["CC(C)CN1C(=O)/C(=C/c2ccc(O)cc2)S/C1=N\\c1ccccc1", 5.08],
  ["COc1cc(/C=C2\\S/C(=N\\c3ccccc3)N(CC(C)C)C2=O)ccc1O", 4.92]
]}

# ---- query compound ----
Item: `COc1ccc(/C=C2\S/C(=N\c3ccccc3)N(CC(C)C)C2=O)cc1OC` | logP: 5.06

Measured values drawn from ChEMBL document CHEMBL2062506 for this set.
